Kindly state TGI for each of the entries shown.
- Test system: SF-539 CNS
- assay-notes: NCI tumour cell line growth inhibition, 48 h
Express your answer in µM, writing the number without its unit.

Which TGI is listed for Cc1c(F)c(N)c2c(=O)cc(-c3ccc(N)c(F)c3)oc2c1F ? 32.3

Which TGI is listed for Cc1sc2nc(-c3ccc([N+](=O)[O-])cc3)c(/C=N/N=C(N)N)n2c1C ? 3.26

Which TGI is listed for CCCCN(Cc1ccccc1)C(=NC#N)N(Cc1ccccc1)Cc1ccccc1 ? 46.8

Which TGI is listed for CCN(CC)CCn1c2ccccc2c(=O)c2c(O)ccc(O)c21 ? 50.3

Which TGI is listed for COc1cc(/C=C/C(=O)c2c(C)nc3ccccc3c2/C=C/c2ccc(C)cc2)cc(OC)c1OC ? 3.69

Which TGI is listed for CCN(C(C)=O)c1cnc(/C=N/NC(N)=S)c2ccccc12 ? 13.6

Which TGI is listed for CC(=O)c1cccc(Nc2nc3ccc(Cl)cc3c3[nH]c4ccccc4c23)c1 ? 30.1

Which TGI is listed for COc1ccc(NC(=O)COCCOCCNC[C@@H]2C(=O)O[C@H]3[C@H]2CC/C(COC(=O)OC/C2=C/CC[C@@]4(C)O[C@H]4[C@H]4OC(=O)[C@@H](CN(C)C)[C@@H]4CC2)=C\CC[C@@]2(C)O[C@@H]32)c(O)c1C(N)=O ? 9.92

Which TGI is listed for O=C(O)C1C(C(=O)O)C23CC2(C(=O)O)C2(C(=O)O)CCC3=C3CCCC312 (centres undefined) ? 34.8

Which TGI is listed for O=C(c1ccccc1)[C@@H]1C[C@H](Sc2ccccc2)c2cc(Cl)ccc2N1 ? 33.5

Which TGI is listed for CCCCCCCCCCC(C(O)c1ccccc1)N1CCCCC1 (centres undefined) ? 3.84

Which TGI is listed for CC1(c2cccc(Cl)c2)CC(c2cccc(Cl)c2)=C(C#N)C(=C(C#N)C#N)N1 (centres undefined) ? 37.2

Which TGI is listed for Cc1ccc2nc(-c3ccccc3)c(N=O)n2c1 ? 92.7

Which TGI is listed for COc1cccc2c1/c(=C/c1ccc(N(C)C)cc1)c1cc(-c3ccccc3)[n+](C)n12 ? 14.9

Which TGI is listed for CNCCNc1c2c(c(NCCNC)c3[nH]ccc13)C(=O)c1ccccc1C2=O ? 1.07

Which TGI is listed for COc1cc(NC(=O)CSc2nc3ccc(C)cc3c(=O)n2Cc2ccccc2)cc(OC)c1OC ? 13.8

Which TGI is listed for Nc1nc2n[nH]nc2c(=O)[nH]1 ? 1.96

Which TGI is listed for COC(=O)C1CCCN1C(=O)[C@@H]1CCCN1C(=O)[C@H](Cc1c[nH]c2ccccc12)NC(=S)Nc1cc(C(F)(F)F)cc(C(F)(F)F)c1 (some centres undefined) ? 5.85

Values from PubChem BioAssay (NCI)
